Target Entity: PRPF40A WW12 (tandem WW domains, residues 141–236) (Homo sapiens, UniProt O75400)
Construct: WW12 141–236, WW12long 141–248, and N-ext-WW12 56–236; 6xHis-TEV site (N, cleaved yes); made in house; host or cells: Escherichia coli BL21(DE3)
Protocol: ITC of PRPF40A WW12 with GB1-tagged proline-rich peptides and constructs
Assay type: binding
Experimental Setup: ITC as E1; peptide in the cell, WW tandem in the syringe, N >1 = more than one WW tandem per peptide
No end group written: not given here.
Reported N (sites) values for the following substances.
Note: unit sites is implicit; provide only the numeric part.

Worked cases, N (sites) given:
Tell me the measured N (sites) of MPPFGMPPAPPPPPPQ [SF1_623–638, GB1-tagged 16-mer from the SF1 C-terminal region] , please. 0.95

Tell me the measured N (sites) of P16: recombinant GB1-tagged polyproline peptide, 16 consecutive proline residues (GB1-GAMSGSPPPPPPPPPPPPPPPPSGSN; also: His6 tag state not given here) , please. 0.88

Tell me the measured N (sites) of MQPPPPPMNQGPHPPG [SF1_425–440, GB1-tagged 16-mer from the SF1 C-terminal region] , please. 0.87

Tell me the measured N (sites) of P25: recombinant GB1-tagged polyproline peptide, 25 prolines (GB1-GAMSGSPPPPPPPPPPPPPPPPPPPPPPPPPSGSN; also: His6 tag state not given here) , please. 2.30

Tell me the measured N (sites) of P22: recombinant GB1-tagged polyproline peptide, 22 prolines (GB1-GAMSGSPPPPPPPPPPPPPPPPPPPPPPSGSN; also: His6 tag state not given here) , please. 1.39

Now take the following substance into account.
Tell me the measured N (sites) of PPLPPGAPPPPPPPPP [SF1WWbs] , please. 1.00

---

Target Entity: PRPF40A Mut N-ExtWW12 (Homo sapiens, UniProt O75400, L125A/P123A/P126A/P127A/P78A/P79A/P81A/V80A)
Construct: WW12long 141–248, and N-ext-WW12 56–236; 6xHis-TEV site (N, cleaved yes); made in house; host or cells: Escherichia coli BL21(DE3)
Protocol: ITC of mutant N-ext-WW12 (PPVP/PALPP motifs changed to alanine) with SF1WWbs
Type: binding
Experimental Setup: ITC, individual value 2 (replicate 2); read-out: Kd Values with Nter Ext WW12 MUTANT, individual value
Parameter Measured: Kd (nM)
Note: unit nM is implicit; provide only the numeric part.

Tell me the measured Kd of PPLPPGAPPPPPPPPP [SF1WWbs] , please. 1980

---

Target Entity: PRPF40A WW12 (tandem WW domains, residues 141–236) (Homo sapiens, UniProt O75400)
Construct: WW12 141–236, WW12long 141–248, and N-ext-WW12 56–236; 6xHis-TEV site (N, cleaved yes); made in house; host or cells: Escherichia coli BL21(DE3)
Protocol: ITC of PRPF40A WW12 with GB1-tagged proline-rich peptides and constructs
Format: binding
Experimental Setup: ITC, SF1 peptides, individual value 3 (replicate 3); read-out: Kd Values with WW12, individual value
Consider the cut-off 10 µM. If the recorded Kd is strictly smaller, the label is yes (1); if not, the label is no (0).

Decide: Kd of PPLPPGAPPPPPPPPP [SF1WWbs] strictly below 10 µM? yes (1)

Decide: Kd of MPPPPMGMMPPPPPPP [SF1_470–485] strictly below 10 µM? no (0)

Decide: Kd of MQPPPPPMNQGPHPPG [SF1_425–440, GB1-tagged 16-mer from the SF1 C-terminal region] strictly below 10 µM? no (0)

Decide: Kd of TMVPLPPGVQPPLPPG [SF1_565–580, GB1-tagged 16-mer from the SF1 C-terminal region] strictly below 10 µM? no (0)
